system: HT29 colon; test: NCI tumour cell line growth inhibition, 48 h
Reported Property: TGI

Test system HT29 colon; read-out TGI; what value for CC(=O)O[C@H](C[C@@H](C)[C@H]1C(=O)[C@H](O)[C@@]2(C)C3CC[C@H]4C(C)(C)[C@@H](OC5OCC(O)C(O)C5O)CC[C@@]45C[C@@]35CC[C@]12C)[C@@H]1OC1(C)C (stereo not given in full) ?
> 100 µM

Test system HT29 colon; read-out TGI; what value for COc1ccc(O)c2c(=O)ccccc12 ?
> 100 µM

Test system HT29 colon; read-out TGI; what value for C=CCCC1CCCCNC1=S (stereo not given) ?
> 10 µM

Test system HT29 colon; read-out TGI; what value for Cc1cc(C)c(-n2c(-c3ccccc3)cs/c2=N\N=C2C=C(C(C)(C)C)C(=O)C(C(C)(C)C)=C2)c(C)c1 ?
> 100 µM

Test system HT29 colon; read-out TGI; what value for COC(=O)C12OCC34C(CC5C(C)=C(O)C(=O)CC5(C)C3C(O)C1O)OC(=O)C(OC(=O)C=C(C)C)C24 (stereo not given) ?
> 500 µM
